Experiment: In vivo pharmacokinetic analysis, single dose, ICR mice
Conditions: mouse, plasma, male, PO 10 mg/kg vs IV 2 mg/kg, read-out: F % (bioavailability)
endpoint.label: bioavailability (%)

compound: c1nc2c(Nc3ccc(N4CCN(C5COC5)CC4)cc3)nc(-c3ccc4cn[nH]c4c3)cn2n1 [I53]
endpoint.label: bioavailability
unit.symbol: %
result.value: 64.2
--
compound: COc1cc(Nc2nc(-c3ccc4cc[nH]c4c3)cn3ncnc23)ccc1N1CCOCC1 [I2]
endpoint.label: bioavailability
unit.symbol: %
result.value: 38.9
--
compound: COc1cc(Nc2nc(-c3ccc4cc[nH]c4c3)cn3ncnc23)ccc1N1CCN(C2COC2)CC1 [I58]
endpoint.label: bioavailability
unit.symbol: %
result.value: 10.7
--
compound: c1nc2c(Nc3ccc(N4CCN(C5COC5)CC4)cc3)nc(-c3ccc4cc[nH]c4c3)cn2n1 [I57]
endpoint.label: bioavailability
unit.symbol: %
result.value: 62
--
compound: COc1cc(Nc2nc(-c3ccc4cn[nH]c4c3)cn3ncnc23)ccc1N1CCN(C2COC2)CC1 [I54]
endpoint.label: bioavailability
unit.symbol: %
result.value: 5.81

P. COc1cc(Nc2nc(-c3ccc4cn[nH]c4c3)cn3ncnc23)ccc1N1CCC(C)(O)CC1 [I22]
Q. c1nc2c(Nc3ccc(N4CCOCC4)cc3)nc(-c3ccc4cc[nH]c4c3)cn2n1 [I10]
R. COc1cc(Nc2nc(-c3ccc4cn[nH]c4c3)cn3ncnc23)ccc1N1CCOCC1 [I1]
Task for the reader: rank each entry by its bioavailability, from the minimum upward. Would you mind listing the labels in the order requested?
P, R, Q

Where these numbers come from: patent US12577248B2
